Listed binders paired with reported log10(koff)
# SYSTEM_TESTED: T1, AAV9
# T1 construct: also called adeno-associated virus serotype 9
# ASSAY_NOTES: SPR, AAV on CM5 chip;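 note: surface plasmon resonance with AAV amine-coupled to the chip as ligand, nanobodies injected as analyte over a concentration series, rate constants and affinity fitted from binding curves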
The figures below represent log10 of koff, where koff is stated in s⁻¹.

A selection of reference data follows.
>>> numeric_value("A4-027 (VHH) VHH: VQLQESGGGLVQPGGSLRLSCAASGSNFSINTMGWYRQAPGKQRELVAALTRGGSTNYADSVKGRFTISRDNAKNTVYLQMNSLRPEDTAVYYCHVDEVRESSWTTSNLWGQGTQVTVSS")
-3.07
>>> numeric_value("A4-005 (VHH) VHH: VQLQESGGGLVQAGGSLRLSCAASGRHFSINTMGWYRQAPGKQRELVAAVTRGGGTNYAGSVKGRFTISRDNAKNTVYLQMNSLRPEDTAVYYCHIDEVRQSSWTTSNIWGQGTQVTVSS")
-1.68
>>> numeric_value("A4-037 (VHH) VHH: VQLQESGGGLVQPGGSLRLSCAASGSIFSINTMGWYRQAPGKQRELVATVTRGGSTNYAGSVKGRFTISRDNAKNTVYLQMNSLRPEDTAVYYCHLDEVRQSSWTTSNIWGQGTQVTVSS")
-3.40
>>> numeric_value("A4-019 (VHH) VHH: VQLQESGGGLVQAGGSLRLSCAASGSTFSINTMGWYRQAPGKQRELVATITRGGSTNYADSVKGRFTISRDNAKNTVYLQMNSLRPEDTAVYYCHVDEVRQSSWTTSNIWGQGTQVTVSS")
-2.28
>>> numeric_value("A4-029 (VHH) VHH: VQLQESGGGLVQPGGSLRLSCAASGSNFSINTMGWYRQRAGKQRELVATVTRGGSTNYADSVKGRFTISRDNAKNTVYLQMNSLRPEDTAVYYCHIDEIRESSWTTSNLWGQGTQVTVSS")
-2.85

Prompt: What log10(koff) value was documented for this binder, A4-011 (VHH) VHH: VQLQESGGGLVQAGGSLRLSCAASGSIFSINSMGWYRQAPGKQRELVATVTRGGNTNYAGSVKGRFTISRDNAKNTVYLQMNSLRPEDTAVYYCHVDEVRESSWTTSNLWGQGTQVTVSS ?
Completion: -1.24

Prompt: Give the measured log10(koff) of A4-007 (VHH) VHH: VQLQESGGGLVQAGGSLRLSCAASGRHFSINTMGWYRQAPGKQRELVAAVTRGGSTNYAGSVKGRFTISRDNAKNTVYLQMNSLRPEDTAVYYCHIDEVRQSSWTTSNIWGQGTQVTVSS .
Completion: -3.05
